tested on: 494315-158-R-J1-PDC complex spheroid growth, percent test/control; assay: Anticancer human tumor 494315-158-R-J1-PDC patient-derived soft tissue sarcoma cell line growth inhibition [Asc]; conditions: second compound 0.949 µM; first compound 1 µM; stronger effect = lower value
// assign fulfilled if viability, T/C falls strictly below 60%, else not fulfilled (ties count as not fulfilled)

Study these solved cases before continuing.
compound	assigned_category
CCN1CCN(Cc2ccc(Nc3ncc(F)c(-c4cc(F)c5nc(C)n(C(C)C)c5c4)n3)nc2)CC1 + CCN1C(C(=O)NC23CCC(C(=O)O)(CC2)CC3)C(c2cccc(Cl)c2F)C2(C(=O)Nc3cc(Cl)ccc32)C12CCCCC2	not fulfilled
COc1c(OCCCN2CCOCC2)ccc2c3n(c(=NC(=O)c4cnc(N)nc4)nc12)CCN3 + CCN1C(C(=O)NC23CCC(C(=O)O)(CC2)CC3)C(c2cccc(Cl)c2F)C2(C(=O)Nc3cc(Cl)ccc32)C12CCCCC2	fulfilled
C#Cc1c(F)ccc2cc(O)cc(-c3ncc4c(N5CC6CCC(C5)N6)nc(OCC56CCCN5CC(F)C6)nc4c3F)c12 (stereo unspecified) + CCN1C(C(=O)NC23CCC(C(=O)O)(CC2)CC3)C(c2cccc(Cl)c2F)C2(C(=O)Nc3cc(Cl)ccc32)C12CCCCC2	not fulfilled
C=C(F)C(=O)N1CCN(c2nc(OCC3CCCN3C)nc3c2CCN(c2cccc4cccc(Cl)c24)C3)CC1CC#N (stereo unspecified) + CCN1C(C(=O)NC23CCC(C(=O)O)(CC2)CC3)C(c2cccc(Cl)c2F)C2(C(=O)Nc3cc(Cl)ccc32)C12CCCCC2	not fulfilled

Could you now consider this next compound?
Is viability, T/C strictly under 60% for the entry CNC(C)C(=O)NC1CN(S(=O)(=O)c2cccc(S(=O)(=O)N3CCC4CCC(C(=O)NC(c5ccccc5)c5ccccc5)N4C(=O)C(NC(=O)C(C)NC)C3)c2)CCC2CCC(C(=O)NC(c3ccccc3)c3ccccc3)N2C1=O (stereo unspecified) + CCN1C(C(=O)NC23CCC(C(=O)O)(CC2)CC3)C(c2cccc(Cl)c2F)C2(C(=O)Nc3cc(Cl)ccc32)C12CCCCC2 ?
fulfilled

---

test system: 494315-158-R-J1-PDC complex spheroid growth, percent test/control; assay: Anticancer human tumor 494315-158-R-J1-PDC cell line growth inhibition [Asc]; conditions: second compound 3.16 µM; first compound 1 µM; stronger effect = lower value;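 further: compound exposure lasted seven days after spheroids formed for three days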
// assign Fulfilled if viability, T/C falls strictly below 30%, else Not fulfilled (ties count as Not fulfilled)

Is viability, T/C strictly under 30% for the entry C=C(F)C(=O)N1CCN(c2nc(OCC3CCCN3C)nc3c2CCN(c2cccc4cccc(Cl)c24)C3)CC1CC#N (stereo not drawn) + Cc1c(S(C)(=O)=O)c(-c2cc(F)cc(N3CCN(c4ccc(NS(=O)(=O)c5ccc(NC(CCN6CCC(C(=O)OCCCP(=O)(O)O)CC6)CSc6ccccc6)c(S(=O)(=O)C(F)(F)F)c5)cc4)CC3)c2)c(-c2ccc(Cl)cc2)n1C(C)C ?
Not fulfilled

Is viability, T/C strictly under 30% for the entry CCN1CCN(Cc2ccc(Nc3ncc(F)c(-c4cc(F)c5nc(C)n(C(C)C)c5c4)n3)nc2)CC1 + Cc1c(S(C)(=O)=O)c(-c2cc(F)cc(N3CCN(c4ccc(NS(=O)(=O)c5ccc(NC(CCN6CCC(C(=O)OCCCP(=O)(O)O)CC6)CSc6ccccc6)c(S(=O)(=O)C(F)(F)F)c5)cc4)CC3)c2)c(-c2ccc(Cl)cc2)n1C(C)C ?
Not fulfilled

Is viability, T/C strictly under 30% for the entry COc1c(OCCCN2CCOCC2)ccc2c3n(c(=NC(=O)c4cnc(N)nc4)nc12)CCN3 + Cc1c(S(C)(=O)=O)c(-c2cc(F)cc(N3CCN(c4ccc(NS(=O)(=O)c5ccc(NC(CCN6CCC(C(=O)OCCCP(=O)(O)O)CC6)CSc6ccccc6)c(S(=O)(=O)C(F)(F)F)c5)cc4)CC3)c2)c(-c2ccc(Cl)cc2)n1C(C)C ?
Fulfilled

Is viability, T/C strictly under 30% for the entry C#Cc1c(F)ccc2cc(O)cc(-c3ncc4c(N5CC6CCC(C5)N6)nc(OCC56CCCN5CC(F)C6)nc4c3F)c12 (stereo not drawn) + Cc1c(S(C)(=O)=O)c(-c2cc(F)cc(N3CCN(c4ccc(NS(=O)(=O)c5ccc(NC(CCN6CCC(C(=O)OCCCP(=O)(O)O)CC6)CSc6ccccc6)c(S(=O)(=O)C(F)(F)F)c5)cc4)CC3)c2)c(-c2ccc(Cl)cc2)n1C(C)C ?
Not fulfilled

Is viability, T/C strictly under 30% for the entry C=CC(=O)N1CCN(c2nc(=O)n(-c3c(C)ccnc3C(C)C)c3nc(-c4c(O)cccc4F)c(F)cc23)C(C)C1 (stereo not drawn) + Cc1c(S(C)(=O)=O)c(-c2cc(F)cc(N3CCN(c4ccc(NS(=O)(=O)c5ccc(NC(CCN6CCC(C(=O)OCCCP(=O)(O)O)CC6)CSc6ccccc6)c(S(=O)(=O)C(F)(F)F)c5)cc4)CC3)c2)c(-c2ccc(Cl)cc2)n1C(C)C ?
Not fulfilled
